- system: Induced myeloid leukemia cell differentiation protein Mcl-1 (Homo sapiens, UniProt Q07820)
- Sequence (Q07820 whole entry, the tested form may be a part): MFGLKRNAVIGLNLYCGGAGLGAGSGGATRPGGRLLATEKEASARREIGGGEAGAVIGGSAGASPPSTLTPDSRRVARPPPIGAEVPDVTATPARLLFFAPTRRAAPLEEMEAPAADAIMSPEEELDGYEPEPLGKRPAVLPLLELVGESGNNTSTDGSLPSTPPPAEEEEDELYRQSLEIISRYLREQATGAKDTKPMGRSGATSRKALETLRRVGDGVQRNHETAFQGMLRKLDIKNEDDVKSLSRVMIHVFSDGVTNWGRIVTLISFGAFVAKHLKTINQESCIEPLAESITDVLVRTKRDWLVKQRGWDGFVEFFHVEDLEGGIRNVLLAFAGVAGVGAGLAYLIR
- experimentSummary: Inhibition of N-terminal biotin-labeled BIM BH3 peptide (141 to 166 residues) binding to His-tagged Mcl-1 (171 to 327 residues) (unknown origin) expressed in Escherichia coli BL21 (DE3) cells incubated for >=30 mins by […]
pIC50: −log10 of the molar value.
Measured pIC50 of individual entries

GET /value?item= Fc1ccc(Cn2c3ccccc3c3ccnc(-c4ccccn4)c32)cc1 &field=pIC50 returns < 5.00

The molecule listed as c1ccc(-c2nccc3c4ccccc4n(CC4CC4)c23)nc1 shows pIC50 equal to < 5.00

// field: pIC50; key: c1ccc(OCCn2c3ccccc3c3ccnc(-c4ccccn4)c32)cc1 ; value = < 5.00

---

- Tested on: LP-1
- experimentSummary: Cytotoxicity against human LP-1 cells after 24 hrs by MTT assay
- Assay type: functional, cell-based
- protocolConditions: LP-1, 24 h
resultType: IC50

Here's what some known entries look like.
So, c1ccc(CCn2c3ccccc3c3ccnc(-c4ccccn4)c32)cc1 ? Its IC50 was 18.8 µM

Looking up c1ccc(-c2nccc3c2[nH]c2ccccc23)nc1 , I see its IC50 listed as > 40 µM

In plain terms, c1ccc(-c2nccc3c4ccccc4n(Cc4ccc5ccccc5c4)c23)nc1 has a documented IC50 of > 40 µM

Further cases:
Noted for c1ccc(COCCn2c3ccccc3c3ccnc(-c4ccccn4)c32)cc1 : its IC50 reads > 40 µM

// IC50 value for CCn1c2ccccc2c2ccnc(-c3ccccn3)c21 : > 40 µM

Measured IC50, c1ccc(OCCn2c3ccccc3c3ccnc(-c4ccccn4)c32)cc1 : > 40 µM

Sample c1ccc(Cn2c3ccccc3c3ccnc(-c4ccccn4)c32)cc1 ; IC50 observed: > 40 µM

---

- System: NCI-H929
- experimentSummary: Cytotoxicity against human NCI-H929 cells after 24 hrs by MTT assay
- Type: functional, cell-based
- protocolConditions: NCI-H929, 24 h
resultType: IC50

The following molecules have reported results that may help.
IC50 for Fc1ccc(Cn2c3ccccc3c3ccnc(-c4ccccn4)c32)cc1 is 25.4 µM

The measured IC50 associated with c1ccc(CCn2c3ccccc3c3ccnc(-c4ccccn4)c32)cc1 reads 14.3 µM

Measured IC50, Cc1ccc(Cn2c3ccccc3c3ccnc(-c4ccccn4)c32)cc1 : 17.9 µM

Field IC50 (entry c1ccc(-c2nccc3c2[nH]c2ccccc23)nc1 ) reads > 40 µM

Sample c1ccc(-c2nccc3c4ccccc4n(CC4CC4)c23)nc1 ; IC50 observed: > 40 µM

Memo: c1ccc(OCCn2c3ccccc3c3ccnc(-c4ccccn4)c32)cc1 , reported IC50: > 40 µM

Please fill in: IC50 reported for CCOCCn1c2ccccc2c2ccnc(-c3ccccn3)c21 = > 40 µM

For record c1ccc(Cn2c3ccccc3c3ccnc(-c4ccccn4)c32)cc1 the listed IC50 is 37.4 µM

Per the record, c1ccc(COCCn2c3ccccc3c3ccnc(-c4ccccn4)c32)cc1 has IC50 of > 40 µM

Lab note: c1ccc(-c2nccc3c4ccccc4n(Cc4ccc5ccccc5c4)c23)nc1 gave IC50 of > 40 µM

More entries:
Lab note: CCn1c2ccccc2c2ccnc(-c3ccccn3)c21 gave IC50 of > 40 µM

The recorded IC50 for Cc1nn(C)c(COc2ccc(N3CCN(S(=O)(=O)N(C)C)CC3)cc2)c1-c1cccc2c(CCCOc3cccc4ccccc34)c(C(=O)O)n(CCN3CCOCC3)c12 is 8.6 µM

---

In this section we review reported log10 Ki values for a set of compounds.
- system: Induced myeloid leukemia cell differentiation protein Mcl-1 (Homo sapiens)
- experimentSummary: Displacement of Flu-BID/FAM-BID from His-tagged Mcl-1 (171 to 327 residues) (unknown origin) expressed in Escherichia coli BL21 (DE3) cells incubated for 3 hrs by fluorescence polarization assay
Please be aware that the numbers have been log10-transformed from Ki in µM.

Quick note, log10 Ki for c1ccc(Cn2c3ccccc3c3ccnc(-c4ccccn4)c32)cc1 landed at 0.79

Next:
In plain terms, c1ccc(COCCn2c3ccccc3c3ccnc(-c4ccccn4)c32)cc1 has a documented log10 Ki of 0.90

Form field log10 Ki, entry Cc1ccc(Cn2c3ccccc3c3ccnc(-c4ccccn4)c32)cc1 : 0.69

Lab note: Fc1ccc(Cn2c3ccccc3c3ccnc(-c4ccccn4)c32)cc1 gave log10 Ki of 0.74

Lookup result for c1ccc(-c2nccc3c4ccccc4n(Cc4ccc5ccccc5c4)c23)nc1 ; measured log10 Ki: 0.82

The recorded log10 Ki for Cc1nn(C)c(COc2ccc(N3CCN(S(=O)(=O)N(C)C)CC3)cc2)c1-c1cccc2c(CCCOc3cccc4ccccc34)c(C(=O)O)n(CCN3CCOCC3)c12 is -2.33

Input c1ccc(CCn2c3ccccc3c3ccnc(-c4ccccn4)c32)cc1 . Output log10 Ki: 0.50

---

- system: Induced myeloid leukemia cell differentiation protein Mcl-1 (Homo sapiens)
- experimentSummary: Inhibition of N-terminal biotin-labeled BIM BH3 peptide (141 to 166 residues) binding to His-tagged Mcl-1 (171 to 327 residues) (unknown origin) expressed in Escherichia coli BL21 (DE3) cells incubated for >=30 mins by […]
Form field: pIC50 (one value per entry).
A value of pIC50 is the negative decimal logarithm of a concentration given in moles per litre.

Summary for this compound, Cc1nn(C)c(COc2ccc(N3CCN(S(=O)(=O)N(C)C)CC3)cc2)c1-c1cccc2c(CCCOc3cccc4ccccc34)c(C(=O)O)n(CCN3CCOCC3)c12 : pIC50 is 8.06

Further cases:
Notebook: Cc1ccc(Cn2c3ccccc3c3ccnc(-c4ccccn4)c32)cc1 , pIC50 read as 5.04

response.value for c1ccc(CCn2c3ccccc3c3ccnc(-c4ccccn4)c32)cc1 (field: pIC50) = 5.05

Form field pIC50, entry c1ccc(-c2nccc3c4ccccc4n(Cc4ccc5ccccc5c4)c23)nc1 : 5.07

---

- Tested on: LP-1
- experimentSummary: Cytotoxicity against human LP-1 cells after 24 hrs by MTT assay
- Assay type: functional, cell-based
- protocolConditions: LP-1, 24 h
Each entry below carries its recorded IC50.
All answers are understood in µM, so give the number only.

Use these answered entries as a reference point.
Record Cc1nn(C)c(COc2ccc(N3CCN(S(=O)(=O)N(C)C)CC3)cc2)c1-c1cccc2c(CCCOc3cccc4ccccc34)c(C(=O)O)n(CCN3CCOCC3)c12 . Reported IC50: 10.6

Note to self: IC50 recorded for Fc1ccc(Cn2c3ccccc3c3ccnc(-c4ccccn4)c32)cc1 was 33.6

Okay, next one:
Recorded IC50 (compound Cc1ccc(Cn2c3ccccc3c3ccnc(-c4ccccn4)c32)cc1 ): 25.8

Data origin: ChEMBL document CHEMBL4725364
